Species on record: Homo sapiens
observed-property: log1/Ki
Give the value as a plain number.

Q: Name the reported log1/Ki value associated with the molecule Clc1ccccc1
A: 3.09

Q: O=[N+]([O-])c1ccccc1 , same question.
A: 3.02

Q: CCc1ccccc1 , same question.
A: 2.74

Q: c1ccc2cc3ccccc3cc2c1 , same question.
A: 5.26

Q: c1ccc2ccccc2c1 , same question.
A: 3.93

Q: Cc1ccccc1 , same question.
A: 2.55

---

procedure-summary: Binding affinity to chymotrypsin (unknown origin) assessed as hydrolysis
condition-set: Homo sapiens
// thresholds for logKcat classes: lower band (below -0.5), central band (-0.5 to below 0.5), upper band (0.5 or more)

Q: Hey, which category is CCCCOC(=O)CNC(=O)c1ccccc1 in, do you know?
A: lower band

Q: CC(=O)N[C@@H](Cc1ccccc1)C(=O)O[C@H](C)c1ccccc1 , same question.
A: upper band

Q: CCC[C@H](NC(C)=O)C(=O)OC , same question.
A: central band

Q: CC(=O)NCC(=O)O[C@H](C)c1ccccc1 , same question.
A: lower band

Q: COC(=O)[C@H](Cc1ccccc1)NC(=O)c1ccccc1 , same question.
A: upper band

Q: CC(=O)NCC(=O)Oc1ccc([N+](=O)[O-])cc1 , same question.
A: central band

Q: O=C(CNC(=O)c1ccccc1)Oc1ccccc1 , same question.
A: central band

Q: O=C(CNC(=O)c1ccccc1)Oc1ccc(F)cc1 , same question.
A: central band

Q: CCC[C@H](NC(=O)c1ccccc1)C(=O)OC , same question.
A: central band

Q: Nc1ccc(OC(=O)CNC(=O)c2ccccc2)cc1 , same question.
A: central band

Q: COC(=O)[C@H](C)NC(=O)c1ccccn1 , same question.
A: lower band

Q: CCOC(=O)[C@H](C)NC(=O)c1ccccc1 , same question.
A: lower band

Q: COC(=O)[C@H](CC1CCCCC1)NC(C)=O , same question.
A: upper band

Q: COC(=O)[C@H](C)NC(C)=O , same question.
A: central band

Q: COC(=O)CNC(=O)CCl , same question.
A: lower band

Q: COC(=O)[C@H](Cc1ccccc1)NC(C)=O , same question.
A: upper band

Q: CCC[C@H](NC(C)=O)C(=O)OC(C)C , same question.
A: central band

Q: CC(=O)N[C@@H](Cc1ccccc1)C(=O)O[C@H](C)C1CCCCC1 , same question.
A: upper band

Q: CS(=O)(=O)N[C@@H](Cc1ccccc1)C(=O)Oc1ccccc1 , same question.
A: upper band

Q: CC[C@@H](C)OC(=O)[C@H](Cc1ccccc1)NC(C)=O , same question.
A: upper band

Q: CC(=O)N[C@@H](Cc1ccccc1)C(=O)O[C@@H](C)C1CCCCC1 , same question.
A: upper band

Q: COC(=O)[C@H](C)NC(=O)c1ccncc1 , same question.
A: central band

Q: COC(=O)[C@@H](NC(=O)CCl)C(C)C , same question.
A: lower band

Q: COC(=O)[C@@H](NC(=O)c1ccccc1)C(C)C , same question.
A: lower band

Q: CCOC(=O)C(NC(C)=O)C(=O)OCC , same question.
A: central band

Q: CC(C)OC(=O)CNC(=O)c1ccccc1 , same question.
A: lower band

---

procedure-summary: Binding affinity to alpha-chymotrypsin (unknown origin) assessed as hydrolysis
condition-set: Homo sapiens
Give logKcat for every item shown.
Give the value as a plain number.

Q: Name the reported logKcat value associated with the compound COC(=O)CNC(=O)C(C)C
A: -1.68

Q: COC(=O)CNC(=O)CC(C)C , same question.
A: -1.6

Q: COC(=O)CNC(=O)Cc1ccccc1 , same question.
A: -2.22

Q: COC(=O)CNC(=O)c1ccco1 , same question.
A: -0.01

Q: COC(=O)CNS(C)(=O)=O , same question.
A: -1.92

Q: COC(=O)CNC(=O)c1cccnc1 , same question.
A: -0.34

Q: COC(=O)CNC(=O)C(F)(F)F , same question.
A: -1.07

Q: COC(=O)[C@H](Cc1ccc(O)cc1)NC(C)=O , same question.
A: 2.07

Q: COC(=O)CNC(C)=O , same question.
A: -1.89

Q: CCOC(=O)NCC(=O)OC , same question.
A: -0.88

Q: COC(=O)CNC(=O)c1ccc(N)cc1 , same question.
A: -1.39

Q: COC(=O)CNC(=O)c1ccccn1 , same question.
A: 0.39

Q: CCC(=O)NCC(=O)OC , same question.
A: -1.74

Q: COC(=O)CNC(=O)c1ccncc1 , same question.
A: -0.8

Q: COC(=O)CNC(=O)C(Cl)Cl , same question.
A: -1.64

Q: CCSCC(=O)NCC(=O)OC , same question.
A: -2.27

Q: CCOC(=O)CNC(C)=O , same question.
A: -1.42
